Tested on: DLD1
Protocol: CellTiter-Blue cell-based survival/proliferation assay, DLD1
Settings: Homo sapiens, DLD-1; DLD_1 colorectal tumor cell line, 48 h
pIC50: −log10 of the molar value.
Measure name: pIC50

- Substance smiles: "CCOCc1ccc(C)c(Nc2ncc(-c3ccc(-n4cccn4)c(OC)c3)o2)c1"
  Measure name: "pIC50"
  Value measured: "< 6.00"
- Substance smiles: "CCOCc1ccc(C)c(Nc2nnc(-c3ccc(-n4cccn4)cc3)o2)c1"
  Measure name: "pIC50"
  Value measured: "< 6.00"
- Substance smiles: "CCOCc1cc(COCC)cc(Nc2ncc(-c3ccc(-n4cccn4)cc3)o2)c1"
  Measure name: "pIC50"
  Value measured: "< 6.00"
- Substance smiles: "Cc1ccc(OCCN(C)C)cc1Nc1ncc(-c2ccc(-n3cccn3)cc2)o1"
  Measure name: "pIC50"
  Value measured: "< 6.00"
- Substance smiles: "CCOCc1ccc(C)c(Nc2ncc(-c3ccc(-n4ccnc4)cc3)o2)c1"
  Measure name: "pIC50"
  Value measured: "< 6.00"
